target: recombinant Antigen 1 (recombinant Ab1 target; recombinant integrin αvβ6 antigen); assay: saturation binding ELISA
Sequence (P06756 31-992, chain 1 of 2): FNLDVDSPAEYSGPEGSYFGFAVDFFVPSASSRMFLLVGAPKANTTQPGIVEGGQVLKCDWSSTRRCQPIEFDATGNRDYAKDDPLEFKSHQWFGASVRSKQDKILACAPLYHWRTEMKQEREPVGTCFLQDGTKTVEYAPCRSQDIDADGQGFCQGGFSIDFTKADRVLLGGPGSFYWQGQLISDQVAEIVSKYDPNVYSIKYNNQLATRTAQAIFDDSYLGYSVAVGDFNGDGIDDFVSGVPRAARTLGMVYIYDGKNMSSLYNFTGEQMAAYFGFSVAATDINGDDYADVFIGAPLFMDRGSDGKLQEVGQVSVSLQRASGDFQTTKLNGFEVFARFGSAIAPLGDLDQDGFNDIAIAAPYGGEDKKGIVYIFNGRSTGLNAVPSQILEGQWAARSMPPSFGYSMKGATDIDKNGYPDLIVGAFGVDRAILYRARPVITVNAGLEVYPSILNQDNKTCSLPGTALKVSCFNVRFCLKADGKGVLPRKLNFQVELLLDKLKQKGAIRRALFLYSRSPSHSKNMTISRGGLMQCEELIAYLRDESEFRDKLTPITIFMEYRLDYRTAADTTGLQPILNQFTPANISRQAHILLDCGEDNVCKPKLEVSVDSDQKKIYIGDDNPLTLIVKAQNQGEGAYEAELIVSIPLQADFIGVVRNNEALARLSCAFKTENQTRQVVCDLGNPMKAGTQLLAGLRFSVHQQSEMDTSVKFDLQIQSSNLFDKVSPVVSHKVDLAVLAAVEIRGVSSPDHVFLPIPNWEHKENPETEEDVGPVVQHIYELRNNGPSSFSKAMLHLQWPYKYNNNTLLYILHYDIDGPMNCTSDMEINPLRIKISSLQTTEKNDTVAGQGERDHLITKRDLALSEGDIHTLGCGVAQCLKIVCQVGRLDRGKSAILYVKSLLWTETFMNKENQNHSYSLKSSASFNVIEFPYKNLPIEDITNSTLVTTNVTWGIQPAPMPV
Sequence (P18564 22-709, chain 2 of 2, further chain): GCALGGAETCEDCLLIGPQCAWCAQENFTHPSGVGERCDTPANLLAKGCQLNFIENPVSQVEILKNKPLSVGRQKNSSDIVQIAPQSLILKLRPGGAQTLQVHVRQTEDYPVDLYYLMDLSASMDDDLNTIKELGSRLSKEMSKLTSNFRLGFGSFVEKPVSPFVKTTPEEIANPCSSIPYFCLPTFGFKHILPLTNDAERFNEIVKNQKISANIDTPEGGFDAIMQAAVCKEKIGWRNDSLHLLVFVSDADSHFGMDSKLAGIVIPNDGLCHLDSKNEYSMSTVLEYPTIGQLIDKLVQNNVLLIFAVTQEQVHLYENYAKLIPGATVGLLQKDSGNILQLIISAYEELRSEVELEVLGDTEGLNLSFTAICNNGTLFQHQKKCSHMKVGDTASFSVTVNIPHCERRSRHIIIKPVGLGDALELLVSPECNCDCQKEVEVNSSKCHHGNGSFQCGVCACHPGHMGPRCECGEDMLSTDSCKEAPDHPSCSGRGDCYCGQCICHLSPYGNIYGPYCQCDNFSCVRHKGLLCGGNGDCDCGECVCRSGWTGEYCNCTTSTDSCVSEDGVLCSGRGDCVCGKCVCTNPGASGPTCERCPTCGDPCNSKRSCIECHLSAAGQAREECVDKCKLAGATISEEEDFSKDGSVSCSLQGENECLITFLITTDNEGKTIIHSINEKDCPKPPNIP
Value kind: EC50 (nM)
Kindly provide the numeric value in nM only, without the unit symbol.

Supply measured EC50 of Vel-IPV-Ab1 Coil 103 (antibody, part only; not given: Ab1 heavy and light chains, part only) heavy, part: QGASTSVDELQAEVDQLEDENYAGKTKVAQLRKKVEKLGSIPVSLRSG light, part: QGASTTVAQLEEKVKTLRAENYEYKSEVQRLEEQVAQLGSIPVSLRSG in your reply. 75.3

Supply measured EC50 of Vel-IPV-Ab1 Coil 137 (antibody, part only; not given: Ab1 heavy and light chains, part only) heavy, part: QGASTSVDELQAEVDQLEDENYAVKTKVAQLRKKVEKLGSIPVSLRSG light, part: QGASTTVAQLEEKVKTLRAENYELKSEVQRLEEQVAQLGSIPVSLRSG in your reply. 128

Supply measured EC50 of Vel-IPV-Ab1 Coil 124 (antibody, part only; not given: Ab1 heavy and light chains, part only) heavy, part: QGASTSVDELQAEVDQLEDENYASKTKVAQLRKKVEKLGSIPVSLRSG light, part: QGASTTVAQLEEKVKTLRAENYEWKSEVQRLEEQVAQLGSIPVSLRSG in your reply. 129

Supply measured EC50 of Vel-IPV-Ab1 Coil 149 (antibody, part only; not given: Ab1 heavy and light chains, part only) heavy, part: QGASTSVDELQAEVDQLEDENYAIKTKIAQLRKKVEKLGSIPVSLRSG light, part: QGASTTVAQLEEKVKTLRAENYEAKSEVQRLEEQVAQLGSIPVSLRSG in your reply. 43.6

Supply measured EC50 of Vel-IPV-Ab1 Coil 142 (antibody, part only; not given: Ab1 heavy and light chains, part only) heavy, part: QGASTSVDELQAEVDQLEDENYALKTKKAQLRKKVEKLGSIPVSLRSG light, part: QGASTTVAQLEEKVKTLRAENYELKSEIQRLEEQVAQLGSIPVSLRSG in your reply. 101
